# LC50 per record follows
Test system: A. albopictus larvae
Test: Larvicidal assay on second-instar larvae
Assay type: in vivo, Aedes albopictus
Conditions: Aedes albopictus, 72 h, read-out: pLC50 (M) (converted)
Report field: quantity (unit follows the number).

Query block: I have this compound here, C[C@@H]1C[C@H](Nc2ccccc2)c2cc(F)ccc2N1C(=O)c1ccc(C(F)(F)F)nc1 [Compound 30] , and I need its recorded LC50.
Result block: 9.55e-07 M

***
Query block: I have this compound here, C[C@@H]1C[C@H](Nc2ccccc2)c2cc(F)ccc2N1C(=O)c1ccc(Cl)nc1 [Compound 29] , and I need its recorded LC50.
Result block: 4.57e-07 M

Query block: Same lookup for C[C@@H]1C[C@H](Nc2ccccc2)c2cc(F)ccc2N1C(=O)c1ccnc(F)c1 [Compound 32] , please.
Result block: 4.68e-07 M

Query block: Same lookup for C[C@@H]1C[C@H](Nc2ccccc2)c2cc(F)ccc2N1C(=O)c1ccncc1 [Compound 23] , please.
Result block: 2.57e-06 M

Query block: Same lookup for C[C@@H]1C[C@H](Nc2ccccc2)c2cc(F)ccc2N1C(=O)c1ccc(C#N)nc1 [Compound 31] , please.
Result block: 5.13e-07 M

###

# pIC50 (M) per record follows
Target: Aedes albopictus EcRs (Aedes albopictus, UniProt Q9U3Y4)
Sequence (Q9U3Y4 1-680): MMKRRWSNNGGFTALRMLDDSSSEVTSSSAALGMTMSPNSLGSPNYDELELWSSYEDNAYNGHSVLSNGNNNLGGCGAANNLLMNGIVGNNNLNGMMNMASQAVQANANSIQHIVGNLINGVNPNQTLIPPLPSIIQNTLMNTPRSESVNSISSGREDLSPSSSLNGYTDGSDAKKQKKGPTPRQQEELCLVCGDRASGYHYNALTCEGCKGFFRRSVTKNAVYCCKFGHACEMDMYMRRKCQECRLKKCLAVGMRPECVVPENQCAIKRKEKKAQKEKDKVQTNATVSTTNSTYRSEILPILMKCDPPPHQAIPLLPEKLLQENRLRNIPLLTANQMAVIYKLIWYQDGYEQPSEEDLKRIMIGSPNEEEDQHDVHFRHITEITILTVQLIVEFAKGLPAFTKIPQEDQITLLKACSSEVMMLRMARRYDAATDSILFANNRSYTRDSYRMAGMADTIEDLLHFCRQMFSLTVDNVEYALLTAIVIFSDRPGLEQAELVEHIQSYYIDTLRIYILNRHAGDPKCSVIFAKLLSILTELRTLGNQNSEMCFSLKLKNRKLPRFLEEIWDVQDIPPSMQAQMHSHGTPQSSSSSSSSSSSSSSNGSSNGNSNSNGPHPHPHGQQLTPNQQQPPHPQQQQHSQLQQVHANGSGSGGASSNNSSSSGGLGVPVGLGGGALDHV
Sequence (Q9U3Y3 1-485 partner): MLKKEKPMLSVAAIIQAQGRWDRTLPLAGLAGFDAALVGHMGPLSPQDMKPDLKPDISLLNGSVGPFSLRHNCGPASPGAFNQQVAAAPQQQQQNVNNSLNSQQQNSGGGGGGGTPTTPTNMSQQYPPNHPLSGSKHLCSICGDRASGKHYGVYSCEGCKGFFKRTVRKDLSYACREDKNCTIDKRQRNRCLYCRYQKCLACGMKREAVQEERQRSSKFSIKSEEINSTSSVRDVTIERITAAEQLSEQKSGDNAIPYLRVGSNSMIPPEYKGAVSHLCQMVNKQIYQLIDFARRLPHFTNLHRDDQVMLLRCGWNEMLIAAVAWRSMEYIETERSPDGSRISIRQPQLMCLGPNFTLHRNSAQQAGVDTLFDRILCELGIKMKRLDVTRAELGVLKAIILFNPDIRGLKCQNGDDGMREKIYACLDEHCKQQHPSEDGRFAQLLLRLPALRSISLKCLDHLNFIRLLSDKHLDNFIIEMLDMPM
Assay type: binding
Conditions: Series II; [3H]PonA binding, NIAS-AeAl-2 cells, 30 min, 25°C; mean±SD

Check out these entries, answers already filled in.
Query block: I have this compound here, C[C@@H]1C[C@H](Nc2ccccc2)c2cc(F)ccc2N1C(=O)c1ccccn1 [Compound 21] , and I need its recorded pIC50 (M).
Result block: 5.93±0.08 (2) M

Query block: Same lookup for C[C@@H]1C[C@H](Nc2ccccc2)c2cc(F)ccc2N1C(=O)c1ccc(C#N)nc1 [Compound 31] , please.
Result block: 7.61±0.08 (2) M

Query block: Same lookup for C[C@@H]1C[C@H](Nc2ccccc2)c2cc(F)ccc2N1C(=O)c1cncnc1 [Compound 26] , please.
Result block: 6.37±0.02 (2) M

***
Query block: I have this compound here, C[C@@H]1C[C@H](Nc2ccccc2)c2cc(F)ccc2N1C(=O)c1ccnnc1 [Compound 25] , and I need its recorded pIC50 (M).
Result block: 6.51±0.13 (2) M

Query block: Same lookup for C[C@@H]1C[C@H](Nc2ccccc2)c2cc(F)ccc2N1C(=O)c1ccncn1 [Compound 24] , please.
Result block: 6.67±0.03 (2) M

Query block: Same lookup for C[C@@H]1C[C@H](Nc2ccccc2)c2cc(F)ccc2N1C(=O)c1cnc(Cl)nc1 [Compound 27] , please.
Result block: 6.11±0.12 (2) M

Query block: Same lookup for C[C@@H]1C[C@H](Nc2ccccc2)c2cc(F)ccc2N1C(=O)c1cccnc1 [Compound 22] , please.
Result block: 6.76±0.15 (2) M

Query block: Same lookup for C[C@@H]1C[C@H](Nc2ccccc2)c2cc(F)ccc2N1C(=O)c1ccnc(C#N)c1 [Compound 35] , please.
Result block: 6.55±0.07 (2) M

###

Target: Aedes albopictus EcRs (Aedes albopictus)
Type: binding
Conditions: Series II; [3H]PonA binding, NIAS-AeAl-2 cells, 30 min, 25°C; mean±SD
VALUE_TYPE: pIC50 (M)

Query block: # get_value(readout= pIC50 (M), system= Aedes albopictus EcRs (Aedes albopictus)) for `C[C@@H]1C[C@H](Nc2ccccc2)c2cc(F)ccc2N1C(=O)c1ccc(C(F)(F)F)nc1`
Result block: 7.03±0.00 (2) M

Query block: Same lookup for `Cc1ccc(C(=O)N2c3ccc(F)cc3[C@@H](Nc3ccccc3)C[C@H]2C)cn1` , please.
Result block: 6.64±0.08 (2) M

Query block: Same lookup for `C[C@@H]1C[C@H](Nc2ccccc2)c2cc(F)ccc2N1C(=O)c1ccc(Cl)nc1` , please.
Result block: 7.09±0.07 (2) M

***
Query block: # get_value(readout= pIC50 (M), system= Aedes albopictus EcRs (Aedes albopictus)) for `C[C@@H]1C[C@H](Nc2ccccc2)c2cc(F)ccc2N1C(=O)c1ccnc(C(F)(F)F)c1`
Result block: 6.56±0.04 (2) M

Query block: Same lookup for `C[C@@H]1C[C@H](Nc2ccccc2)c2cc(F)ccc2N1C(=O)c1ccnc(F)c1` , please.
Result block: 7.47±0.08 (2) M

Query block: Same lookup for `C[C@@H]1C[C@H](Nc2ccccc2)c2cc(F)ccc2N1C(=O)c1ccncc1` , please.
Result block: 7.29±0.03 (2) M
